Please respond with reported growth inhibition for every item in the list.
# Protocol details: NCI Yeast Anticancer Drug Screen. Data for the bub3 strain (AID 167)
# Experimental setup: S. cerevisiae bub3 mutant strain, at 50.0 µM, active compounds read high
The panel holds about 79,000 compounds, 15% with a hit somewhere; the sample as a whole holds those more often. Active and inactive are the calls of the source. Rule as the data show it: active = growth inhibition above about 70%; inactive = the rest.

Specify reported growth inhibition for the compound shown: CC(C)(C)OC(=O)NCCNC(=O)OCc1ccccc1
-3.5% (inactive)

Specify reported growth inhibition for the compound shown: Cc1ccc(S(=O)(=O)NC(Cc2ccccc2)C(=O)NCc2cccnc2)cc1 (stereo not drawn)
-4.1% (inactive)

Specify reported growth inhibition for the compound shown: O=C(O)Cc1cc(Cl)ccc1Cl
-1.2% (inactive)

Specify reported growth inhibition for the compound shown: O=C(NCc1ccccc1)NCc1ccccc1
-18.4% (inactive)

Specify reported growth inhibition for the compound shown: COc1ccc(NC(=O)/C(Cc2nc3ccccc3[nH]c2=O)=N\O)c(OC)c1
-4.85% (inactive)

Specify reported growth inhibition for the compound shown: COC1CCC(/C(C#N)=C/C2CCC(OC)C(OC)C2)CC1 (stereo not drawn)
68.8% (inactive)

Specify reported growth inhibition for the compound shown: NNC(=O)c1cccc2c1Oc1ccccc1S2
-11.9% (inactive)

Specify reported growth inhibition for the compound shown: Cc1ccc(S(=O)(=O)NN=C2C(C)CC(C(C)(C)C)CC2C)cc1 (stereo not drawn)
44.6% (inactive)

* * *

# Protocol details: NCI Yeast Anticancer Drug Screen. Data for the sgs1 mgt1 strain (AID 161);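 also: 0% = growth of cultures given vehicle only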
# Experimental setup: S. cerevisiae sgs1 mgt1 strain, at 50.0 µM, active compounds read high
This is part of a sample that, as a whole, favours compounds with a hit. Of some 79,000 tested, about 15% had one in any assay.
Threshold check on growth inhibition: at or above -30% gives yes (1), strictly below gives no (0).

Would you say Cc1ccccc1C(=O)N(C(C)C)C(C)C shows growth inhibition at minimum -30%?
yes (1)

Would you say Nc1c([N+](=O)[O-])cc(F)cc1C(F)(F)F shows growth inhibition at minimum -30%?
yes (1)

Would you say Cc1cc(C)c2c(=O)cc(-c3cccc(F)c3)[nH]c2n1 shows growth inhibition at minimum -30%?
yes (1)

Would you say COCc1cc(CC(C)=O)nc(C/C=N/NC(N)=O)n1 shows growth inhibition at minimum -30%?
yes (1)

Would you say CC1(C)CC(=O)C(C(c2ccc3c(c2)CCC3)C2C(=O)CC(C)(C)CC2=O)C(=O)C1 shows growth inhibition at minimum -30%?
no (0)

Would you say CCOC(=C\C=C\C1=[N+](C)c2ccccc2C1(C)C)/C=C/C=C1/N(C)c2ccccc2C1(C)C shows growth inhibition at minimum -30%?
yes (1)

* * *

# Protocol details: NCI Yeast Anticancer Drug Screen. Data for the mec2-1 strain (AID 157)
# Experimental setup: S. cerevisiae mec2-1 strain, at 50.0 µM, active compounds read high
Compounds without any hit were thinned out: in the full panel of roughly 79,000, 15% have a hit.
Measurement name: growth inhibition (%)
Enter your answer as a number in %; do not include the unit.

Specify reported growth inhibition for the compound shown: O=C1OC2=C(CCCC2)C(N2CCCCC2)C12SCCCS2 (stereo unspecified)
14.4

Specify reported growth inhibition for the compound shown: CCCc1c(Cl)nc(Cl)nc1Cl
26.8

Specify reported growth inhibition for the compound shown: CCCCOC(=O)C(=O)C(CC(C(=O)Cc1ccccc1)c1ccccc1)C(=O)C=C(C)C (stereo unspecified)
-5.3

Specify reported growth inhibition for the compound shown: C/C(CCc1ccccc1Br)=N/NC(N)=O
-0.9

Specify reported growth inhibition for the compound shown: CN1[C@@H]2C[C@@H](OC(=O)[C@H](CO)c3ccccc3)C[C@H]1[C@@H]1O[C@@H]12
2.4

Specify reported growth inhibition for the compound shown: O=c1[nH]c(Nc2ccccc2)nc2c1ncn2CC(O)CSCCO (stereo unspecified)
13.2

Specify reported growth inhibition for the compound shown: CC(=O)N(CCCc1ccccc1)C(C)(C)C
5.3

Specify reported growth inhibition for the compound shown: Cc1nc2nc(NCCCN(C)C)nc(NCCCN(C)C)c2nc1C
1.25

Specify reported growth inhibition for the compound shown: COC(=O)c1cc2ccccc2c2c3c(ccc12)OCO3
-0.15

Specify reported growth inhibition for the compound shown: CN1CC2(C)OC3(CC2(C)N1C)N(C)N(C)CC3(C)O (stereo unspecified)
-1.9

Specify reported growth inhibition for the compound shown: O=[N+]([O-])c1ccc2c(c1)Sc1ccccc1N2
-14.4

Specify reported growth inhibition for the compound shown: CCC(O)CNCc1ccnc2ccc(OC)cc12 (stereo unspecified)
2.9

Specify reported growth inhibition for the compound shown: O=C(NC(c1ccccc1)c1cccs1)c1cccs1 (stereo unspecified)
-4.45

Specify reported growth inhibition for the compound shown: CCC(=O)NCCCCCN1CCCCC1
5.35

Specify reported growth inhibition for the compound shown: CC1CNC(=O)NC1=O.O.O.[NH2-].[NH2-].[Pt+4] (stereo unspecified)
11.2

Specify reported growth inhibition for the compound shown: CCCCN(CCCC)CCCCCCCCCCCO
-8.35

* * *

Please respond with reported growth inhibition for every item in the list.
# Protocol details: NCI Yeast Anticancer Drug Screen. Data for the mec2-1 strain (AID 157)
# Experimental setup: S. cerevisiae mec2-1 strain, at 50.0 µM, active compounds read high
Compounds without any hit were thinned out: in the full panel of roughly 79,000, 15% have a hit.
Enter your answer as a number in %; do not include the unit.

Specify reported growth inhibition for the compound shown: COc1ccc(-c2nnc(CCCCCCCCc3nnc(-c4ccc(OC)cc4)n3N)n2N)cc1
-23.9

Specify reported growth inhibition for the compound shown: CC1CCOCO1 (centres undefined)
0.1

Specify reported growth inhibition for the compound shown: CC(=O)N1CCOCC1
1.55

Specify reported growth inhibition for the compound shown: CC1(C(N)=O)CCC1
-15.4

Specify reported growth inhibition for the compound shown: CC1CCC/C1=C(/I)C(=O)c1ccccc1 (centres undefined)
-6.75

Specify reported growth inhibition for the compound shown: CC12CCC[C@@](C)(C(=O)OC3OC(CO)C(O)C(O)C3O)[C@H]1CCC13CC4CC(OC4(CO)[C@H]1O)[C@@H]23 (some centres undefined)
-26.1

Specify reported growth inhibition for the compound shown: O=C1c2ccccc2C(O)(c2ccccc2)c2ccccc21
20.6

Specify reported growth inhibition for the compound shown: c1ccc(C2c3ccccc3-c3ncnc(N4CCCCC4)c32)cc1 (centres undefined)
-3.15

Specify reported growth inhibition for the compound shown: Cc1ccc(S(=O)(=O)N/N=C/C(O)C(O)C(O)C(O)CO)cc1 (centres undefined)
-5.15

* * *

# Protocol details: NCI Yeast Anticancer Drug Screen. Data for the bub3 strain (AID 167)
# Experimental setup: S. cerevisiae bub3 mutant strain, at 50.0 µM, active compounds read high
The panel holds about 79,000 compounds, 15% with a hit somewhere; the sample as a whole holds those more often.
Measurement name: growth inhibition (%)
Enter your answer as a number in %; do not include the unit.

Specify reported growth inhibition for the compound shown: CCOC(=O)NN(C(=O)OCC)c1c(C)[nH]c2ccccc12
4.65

Specify reported growth inhibition for the compound shown: CC1=C/C(=N\NC(=O)c2ccc[n+](C)c2)CC(C)(C)C1
-5.4

Specify reported growth inhibition for the compound shown: N#Cc1c(N)[n+]([O-])c2c([n+]1[O-])CCCC2
-14.8

Specify reported growth inhibition for the compound shown: COc1c(OC(C)=O)c(OC(C)=O)cc2c1-c1ccc(OC)c(=O)cc1C(NC(C)=O)CC2 (centres undefined)
-33.3

Specify reported growth inhibition for the compound shown: CCCCCCCCNC(=O)/C(=C\c1ccc(/C=C(/NC(=O)c2ccccc2)C(=O)NCCCCCCCC)cc1)NC(=O)c1ccccc1
-17.9

Specify reported growth inhibition for the compound shown: CNc1ccn(C2OC(CO)C(O)C2SC(C)(C)C)c(=O)n1 (centres undefined)
0.45

Specify reported growth inhibition for the compound shown: O=S(=O)(N/N=C/c1ccncc1)c1ccccc1
34.5

Specify reported growth inhibition for the compound shown: COC(=O)N1c2ccccc2[C@@H](O)[C@@H]1OC
11.7

Specify reported growth inhibition for the compound shown: CCOc1ccccc1NC(=O)Nc1ccccc1Cl
7.5

Specify reported growth inhibition for the compound shown: CSc1ccc(NC(=O)c2ccc(C(=O)Nc3ccc(SC)cc3)cc2)cc1
-1.95

Specify reported growth inhibition for the compound shown: C/C=C/C(=O)NN
-2.9

Specify reported growth inhibition for the compound shown: CC(=O)Nc1ccc2ccc3ccccc3c2c1
-4.35

Specify reported growth inhibition for the compound shown: O=C(CNc1ccccc1[N+](=O)[O-])Nn1cnc2ccc(S(=O)(=O)Nc3ccccc3[N+](=O)[O-])cc2c1=O
21.2

Specify reported growth inhibition for the compound shown: COC[N+](C)(C)C
7.2

Specify reported growth inhibition for the compound shown: C=C(C)CNCC(=C)C
17.9

Specify reported growth inhibition for the compound shown: O=P1(O)c2ccccc2CCc2ccccc21
-11

Specify reported growth inhibition for the compound shown: Cc1ccc(N=C2OC(=O)c3ccccc32)cc1
9.9

Specify reported growth inhibition for the compound shown: C/C=N\N1C(=O)c2ccccc2C1=O
19.4

Specify reported growth inhibition for the compound shown: O=S(=O)(O)C(O)C(F)(F)C(F)(F)C(F)(F)F (centres undefined)
-30.6

Specify reported growth inhibition for the compound shown: CN=C(N/N=C/c1ccccc1)N(C)C
23.9

Specify reported growth inhibition for the compound shown: CCC(CC)C1CC[N-]CC1.CCC(CC)C1CC[N-]CC1.CCC(CC)C1CC[N-]CC1.CCC(CC)C1CC[N-]CC1.N#C[S-].N#C[S-].[Co]
19.4

Specify reported growth inhibition for the compound shown: Cc1ccc2[nH]c(=O)cc(C)c2c1
8.15

Specify reported growth inhibition for the compound shown: CCOC(=O)c1[nH]cc(C)c1-c1c[nH]c2ccccc12
-4.05

Specify reported growth inhibition for the compound shown: O=C(Cl)Cc1ccccc1[N+](=O)[O-]
-20.4

Specify reported growth inhibition for the compound shown: NNC(=O)CC1(O)CCCCC1
-17.1

Specify reported growth inhibition for the compound shown: O=C(Nc1cccc(Cl)c1)Sc1c(Cl)c(Cl)c(Cl)c(Cl)c1Cl
7.3

Specify reported growth inhibition for the compound shown: CCOC(=O)/C(=C(/C)N=Cc1ccccc1[N+](=O)[O-])C(NN=O)c1ccccc1[N+](=O)[O-] (centres undefined)
-5

Specify reported growth inhibition for the compound shown: CCCc1c(C)nc2scc(-c3ccccc3)n2c1=O
39.4

Specify reported growth inhibition for the compound shown: C[OH2+].[Cl][Cu+].[Cl][Cu+].[NH-]CCC([OH2+])CC[NH-]
-2.8

Specify reported growth inhibition for the compound shown: C[N+]1(C)CCCC(OC(=O)C(O)(c2ccccc2)c2ccccc2)C1 (centres undefined)
13.6

Specify reported growth inhibition for the compound shown: O=C(O)C1=C(c2ccccc2)C=C(c2ccccc2)C1
48

Specify reported growth inhibition for the compound shown: CC(C)=CC1C(C(=O)Oc2c(Cl)c(Cl)c(Cl)c(Cl)c2Cl)C1(C)C (centres undefined)
-4.15

Specify reported growth inhibition for the compound shown: CCCCSc1nc(NCC)nc(NCC)n1
40.5

Specify reported growth inhibition for the compound shown: CN(C)CCCNc1nc(Cl)nc2nc(-c3ccccc3)c(-c3ccccc3)nc12
28.9

The measurements presented in this section are drawn from PubChem BioAssay (NCI).
